Hey, just so you know, these numbers are from ChEMBL document CHEMBL1201862.

Test system: HOP-62
Assay: NCI tumour cell line growth inhibition, 48 h
Calls of active or inactive are those of the source. Rule as the data show it: active = GI50 up to about 1.1 µM and inactive = higher.
Kindly state GI50 for each of the entries shown.

Before answering, review these 5 worked examples.
COMPOUND	GI50
C[C@H](CCC(=O)O)[C@H]1CC[C@H]2[C@@H]3[C@H](O)C[C@@H]4C[C@H](O)CC[C@]4(C)[C@H]3C[C@H](O)[C@]12C	> 100 µM (inactive)
Cc1cc(C)nc(NS(=O)(=O)c2ccc(Nc3c4ccccc4nc4c(C(=O)Nc5ccc(S(=O)(=O)Nc6cc(C)on6)cc5)cccc34)cc2)n1	21.2 µM (inactive)
Cc1ccc(/N=N/N(C)C(=O)C(C)N)cc1 (centres undefined)	> 100 µM (inactive)
C#CCN(N=O)C(=O)NC(CCCCNC(=O)OCc1ccccc1)C(=O)OCc1ccccc1 (centres undefined)	> 100 µM (inactive)
COc1ccc(Nc2[nH]c(C(C)=O)c(N)c2C(=S)Nc2ccccc2)cc1	> 100 µM (inactive)

Give measured GI50 for every item shown.
1. CC(=O)Oc1ccccc1/C=C/C(=O)/C=C/c1ccccc1OC(C)=O
2. C=CC/N=C(\S)Nc1sc2c(c1C(=O)OCC)CC(C)CC2 (centres undefined)
3. Cc1nc2c(nc1C)C(=O)C1=C(C2=O)C2C=CC1CC2
4. CC(C)c1cccc(C(C)C)c1NC(=O)C(=O)C1CCC2=C(Sc3ccccc3N2)C1=O (centres undefined)

[reply]
1: 2.44 µM (inactive); 2: 23.1 µM (inactive); 3: 22.3 µM (inactive); 4: > 100 µM (inactive)

###

Kindly state GI50 for each of the entries shown.
Test system: KM12
Assay: NCI tumour cell line growth inhibition, 48 h
Activity calls are given as the source filed them. Rule as the data show it: active = GI50 up to about 1.1 µM and inactive = higher.

COMPOUND	MEASUREMENT_TARGET	ENDPOINT_VALUE
C[Si](C)(OCCS(=O)(=O)O)C1S(=O)(=O)OCCOS1(=O)=O	KM12	91.6 µM (inactive)
O=C1c2ccccc2C(=O)C1(O)c1c[nH]c2ccccc12	KM12	> 100 µM (inactive)
Cc1cn(C2CC(N)C(CN)O2)c(=O)[nH]c1=O (centres undefined)	KM12	> 100 µM (inactive)

[ask] What value of measured GI50 is listed for COC(=O)C1(C)OC(C)=NC1(C(=O)OC)C(=O)OC (centres undefined) ?
[reply] > 100 µM (inactive)

###

Tested on: DLD-1
Assay: NCI tumour cell line growth inhibition, 48 h
Calls of active or inactive are those of the source. Cut-off read from the data, not from the text of the source: active = GI50 up to about 1.1 µM and inactive = higher.
Just give me one of these, please: 1.0 = active, 0.0 = inactive

[ask] Test call for this compound, please: CCOC(=O)C1(Cc2ccc3ccccc3c2)CCCCCN1 (stereo unspecified)
[reply] 0.0

[ask] Test call for this compound, please: CC1=NN(c2ccccc2)C(=O)C1=C1SCCS1
[reply] 0.0

[ask] Test call for this compound, please: CC(C)(CCl)NC(=O)c1cccc(C(=O)NC(C)(C)CCl)n1
[reply] 0.0

[ask] Test call for this compound, please: COc1ccccc1/N=N/c1c(-c2ccccc2)nn(C(=O)CC(=O)Nc2ccccc2Cl)c1-c1ccccc1
[reply] 0.0

###

Test system: M14
Assay: NCI tumour cell line growth inhibition, 48 h
Calls of active or inactive are those of the source. No stated cut-off is given here; in the data, active = GI50 up to about 1.1 µM and inactive = higher.
Just give me one of these, please: active, inactive

These solved cases illustrate the format of a correct answer.
MOLECULE	CATEGORY_LABEL
CN(Cc1cnc2nc(N)nc(N)c2n1)c1ccc(C(=O)NC(CCC(=O)O)C(=O)O)cc1 (stereo unspecified)	active
O=C1Nc2ccccc2SC1=C(C(=O)c1ccccc1)C(=O)c1ccccc1	inactive

[ask] Test call for this molecule, please: COC(=O)C1(Cc2ccccc2)Cc2ccc3c(c2C1=O)CCC3 (stereo unspecified)
[reply] inactive

[ask] Test call for this molecule, please: S=C1Cc2cc3ccccc3nc2-c2ccccc2N1
[reply] inactive

[ask] Test call for this molecule, please: COc1ccc(C(=O)OCC2OC(n3cnc4c(=S)nc[nH]c43)C(OC(=O)c3ccc(OC)cc3)C2OC(=O)c2ccc(OC)cc2)cc1 (stereo unspecified)
[reply] inactive

[ask] Test call for this molecule, please: CCCCCCNC(=S)N/N=C(\C)c1ccccn1
[reply] active

[ask] Test call for this molecule, please: COc1cccc2c1C(=O)c1c(O)c3c(c(O)c1C2=O)C[C@@](O)(C(C)=O)CC3S(=O)(=O)O (stereo partly specified)
[reply] inactive

[ask] Test call for this molecule, please: CC1(C)C(OC(=O)c2ccccc2)C[C@]23CCC[C@](C)(C[C@@H](O)C12)C3 (stereo partly specified)
[reply] inactive

[ask] Test call for this molecule, please: COC(=O)CCC12CCC(O1)c1ccccc12 (stereo unspecified)
[reply] inactive

[ask] Test call for this molecule, please: O=C(O)Cn1ccnc1[N+](=O)[O-]
[reply] inactive

[ask] Test call for this molecule, please: CCCCOC(=O)C(=O)C(CC(C(=O)Cc1ccccc1)c1ccccc1)C(=O)C=C(C)C (stereo unspecified)
[reply] inactive

###

Test system: A498
Test: NCI tumour cell line growth inhibition, 48 h
The source made the active and inactive calls. Cut-off read from the data, not from the text of the source: active = GI50 up to about 1.1 µM and inactive = higher.
ASSAY_READOUT: GI50

Before answering, review these 5 worked examples.
MOLECULE	GI50
Cc1cnc2nc(-c3ccc(Cl)cc3)cc(O)c2c1	5.48 µM (inactive)
BrC1(Br)C2/C=C\CCCCC21 (stereo unspecified)	> 100 µM (inactive)
COc1ccc(/C(C=O)=C(\Cl)c2ccc(OC)c(OC)c2)cc1	18.4 µM (inactive)
COC(=O)C(=O)C(C#N)c1nc2ccccc2s1 (stereo unspecified)	> 100 µM (inactive)
COCCOCOC(CCCCO)c1cc(C)c(O[Si](C)(C)C(C)(C)C)c(C)c1 (stereo unspecified)	12.4 µM (inactive)

Give measured GI50 for every item shown.
1. Oc1ccccc1-c1n[nH]c(-c2ccccc2O)n1
2. COc1ccc(Nc2[nH]c(C(C)=O)c(N)c2C(=S)Nc2ccccc2)cc1
3. CCN1CCCCCCCCCC(=N/O)/C(=N\O)C1
4. COc1ccc(C2C3CCCC(C3=O)C(c3ccc(OC)cc3)N2N=O)cc1 (stereo unspecified)

[reply]
["8.51 µM (inactive)", "> 100 µM (inactive)", "> 100 µM (inactive)", "15.2 µM (inactive)"]

Give measured GI50 for every item shown.
1. C[Si](C)(OCCS(=O)(=O)O)C1S(=O)(=O)OCCOS1(=O)=O
2. Cc1ccc([S+]([O-])C[C@@]2(C(F)F)NC(=O)NC2=O)cc1 (stereo partly specified)

[reply]
> 100 µM (inactive)
> 100 µM (inactive)

###

System: DU-145
Assay: NCI tumour cell line growth inhibition, 48 h
The source made the active and inactive calls. Rule as the data show it: active = GI50 up to about 1.1 µM and inactive = higher.
ASSAY_READOUT: GI50

Before answering, review these 3 worked examples.
COMPOUND	MEASUREMENT_TARGET	GI50
COc1ccc(CCn2cnc3ccccc32)cc1	DU-145	> 100 µM (inactive)
COc1cc(C2c3cc4c(cc3OC(Nc3ccccc3)C2C)OCO4)cc(OC)c1O (stereo unspecified)	DU-145	4.02 µM (inactive)
CC(=O)c1ccc2c(c1)CC1(C2)Cc2cc3c(c(C(=O)O)c2C1)CCC3 (stereo unspecified)	DU-145	> 100 µM (inactive)

Give measured GI50 for every item shown.
1. COC(=O)c1c(C)nc(C)c(NO)c1-c1ccccc1C(F)(F)F
2. COC(=O)C1(Cc2ccccc2)Cc2ccc3c(c2C1=O)CCC3 (stereo unspecified)
3. CC1(C)CC(=O)C2=C(C1)c1c(ccc3ccccc13)NC2c1cn(Cc2ccc(Cl)cc2)c2ccccc12 (stereo unspecified)
4. CC1C(c2ccc(N(C)C)cc2)c2cc3c(cc2OC1N1CCCC1)OCO3 (stereo unspecified)

[reply]
32.8 µM (inactive)
> 75.3 µM (inactive)
> 100 µM (inactive)
66.2 µM (inactive)

###

Tested on: OVCAR-8
Assay: NCI tumour cell line growth inhibition, 48 h
Calls of active or inactive are those of the source. Cut-off read from the data, not from the text of the source: active = GI50 up to about 1.1 µM and inactive = higher.
Just give me one of these, please: t (active), f (inactive)

COMPOUND	CATEGORY_LABEL
O=C(c1ccc(Cl)cc1Cl)N(C(=O)N1CCC(c2ccccc2)CC1)c1ccccc1	f
CN(C)CCNC(=O)c1cccc2cc3c(Cl)cccc3nc12	t
CC(C)(C)OC(=O)N1C(C2=COc3ccccc3O2)=COc2cccnc21	f
CC(=O)/C(=C/N1CCNC1=S)C(=O)Nc1ccccc1C	f
CC1(C)OCC(C2OC3OC(C)(C)OC3C2c2ccccc2)O1 (stereo unspecified)	f

Okay, next one:
[ask] Test call for this compound, please: OCCN(CCO)c1ncnc2[nH]cnc12
[reply] f

###

System: PC-3
Assay: NCI tumour cell line growth inhibition, 48 h
Calls of active or inactive are those of the source. Cut-off read from the data, not from the text of the source: active = GI50 up to about 1.1 µM and inactive = higher. Where a SMILES comes first, the peptide text is derived from it. The star is where a group is joined. Boc = CC(C)(C)OC(=O)*; nBu = CCCC*
Kindly state GI50 for each of the entries shown.

Before answering, review these 6 worked examples.
COMPOUND	ENDPOINT_VALUE
CC1(C)C(OC(=O)c2ccccc2)C[C@]23CCC[C@](C)(C[C@@H](O)C12)C3 (some centres undefined)	11.5 µM (inactive)
Cc1cc(=O)n2nc(CN3CCCCC3)sc2n1	> 100 µM (inactive)
Cn1nnc2c(C(N)=S)ncn2c1=O	> 100 µM (inactive)
CC(C)=CCC(O)C1=CC(=O)c2c(O)ccc(O)c2C1=O (centres undefined)	2.23 µM (inactive)
NC(=O)c1cc2ccc(O)cc2o/c1=N/NC(=O)c1ccccc1	83.2 µM (inactive)
C[C@]12CC(c3ccccc3O1)C(C(N)=O)C(=O)N2 (some centres undefined)	> 100 µM (inactive)

Give measured GI50 for every item shown.
1. C#CCOC(=O)[C@@H](C)c1ccc2cc(OC)ccc2c1
2. CO[C@@]12[C@H](COC(N)=O)C3=C(C(=O)C(C)=C(N)C3=O)N1C[C@@H]1N[C@@H]12
3. CC(=O)C1C(=O)C(=O)N(c2ccc(Cl)c(Cl)c2)C1=O (centres undefined)
4. C[N+]1(Cc2ccc(Cl)c(Cl)c2)CCCC1C1CCCN(Cc2ccc(Cl)c(Cl)c2)C1 (centres undefined)
5. Cc1ccc(S(=O)(=O)NNC(=O)Nc2cccc(C(F)(F)F)c2)cc1
6. CN1CC=C(c2c(N)nc(N)[nH]c2=O)CC1
7. COc1ccc(C(=O)Oc2c(C#N)sc3c2c(=O)n(-c2ccccc2)c(=S)n3-c2ccccc2)cc1

[reply]
1. 82.6 µM (inactive)
2. 2.24 µM (inactive)
3. > 100 µM (inactive)
4. > 100 µM (inactive)
5. 36.4 µM (inactive)
6. > 100 µM (inactive)
7. 26.5 µM (inactive)

Give measured GI50 for every item shown.
1. CCN1CCN(c2nc3ccccc3nc2C(=O)c2ccc(OC)c(OC)c2)CC1
2. CCCCOc1ccc(CC(NC(=O)OC(C)(C)C)C(=O)NC(C)C(=O)NC(Cc2ccccc2)C(=O)NCC(N)=O)cc1 (centres undefined) (Boc-Y(nBu)AFG-NH2; configuration not given here)
3. CC1=CC(=O)c2ccccc2C1=O
4. COc1cc(N(C)C)c(OC)cc1/C=C\c1ccnc2ccccc12
5. CC1(C)CC(=O)C2=C(C1)c1c(ccc3ccccc13)NC2c1cn(Cc2ccc(Cl)cc2)c2ccccc12 (centres undefined)
6. CC(C)C(Br)C(=O)NCC(=O)O (centres undefined)

[reply]
["32.7 µM (inactive)", "> 100 µM (inactive)", "3.61 µM (inactive)", "2.92 µM (inactive)", "> 100 µM (inactive)", "> 100 µM (inactive)"]
